Listed here: items and their measured melting point.

// worked examples, melting point included
COMPOUND	melting point
COc1cc(N2CCN(C)CC2)c2oc(C(=O)Nc3ccc(N4CCN(C(=O)CCO)CC4)cc3)cc(=O)c2c1 [Example 68]	195 to 197 °C
CN1CCN(c2cccc3c2OC(C(=O)Nc2ccc(N4CCOCC4)cc2)CC3=O)CC1 (racemic) [Example 78]	215 to 216 °C
CN1CCN(c2cccc3c(=O)cc(C(=O)Nc4ccc(N5CCOCC5)cc4)oc23)CC1 [Example 1]	217 to 218 °C (dec.)
CCNC(=O)N1CCN(c2ccc(NC(=O)c3cc(=O)c4cc(F)cc(N5CCN(C)CC5)c4o3)cc2)CC1 [Example 81]	236 to 238 °C
CN1CCN(c2cccc3c2OC(C(=O)Nc2ccc(N4CCOCC4)cc2)CC3)CC1 (racemic) [Example 75]	215 to 216 °C

Request: Name the reported melting point value associated with the compound CCS(=O)(=O)N1CCN(c2ccc(NC(=O)c3cc(=O)c4cc(F)cc(N5CCN(C)CC5)c4o3)cc2)CC1 [Example 71]
Result: 233 to 234 °C

Request: Name the reported melting point value associated with the compound CN1CCN(c2cccc3c(=O)cc(C(=O)Nc4ccc(N5CCOCC5)cc4O)oc23)CC1 [Example 22]
Result: 248.4 to 249.6 °C

Request: Name the reported melting point value associated with the compound CN1CCN(c2cccc3c2OC(C(=O)Nc2ccc(N4CCOCC4)cc2)CC3)CC1 (single isomer, unassigned; (-)) [Example 77]
Result: 205.5 to 207 °C

Values compiled from patent US20060178372A1.
